# System: OVCAR-5
# Assay Protocol: NCI tumour cell line growth inhibition, 48 h
Calls of active or inactive are those of the source. Rule as the data show it: active = GI50 up to about 1.1 µM and inactive = higher.
# Lookup of reported GI50 keyed by entry

{"Compound": "NC(=S)N/N=C/c1ncccc1N", "GI50": "5.08 µM (inactive)"}
{"Compound": "CCN(CC)C(=O)CC12CCCCC1=Nc1ccccc12 (stereo not given)", "GI50": "> 100 µM (inactive)"}
{"Compound": "N/N=c1\\c2ccccc2c2cc3c(cc12)/c(=N/N)c1ccccc13", "GI50": "> 100 µM (inactive)"}
{"Compound": "O=C1C(Cl)C2(CC(/C=C/c3ccccc3)=NN2c2cccc(S(=O)(=O)O)c2)N1c1nc2ccccc2s1 (stereo not given)", "GI50": "18.1 µM (inactive)"}
{"Compound": "CCCCCCCCCC[C@H](O)[C@H]1CC[C@H]([C@H]2CC[C@H]([C@H](O)CC[C@H](O)CCCCCCC[C@@H](O)CC3=C[C@H](C)OC3=O)O2)O1", "GI50": "> 10 µM (inactive)"}
{"Compound": "COc1cc(=O)oc(/C=C/C=C/C=C/C(C)=C\\C2(C)OC(C)C(C)(O)C2O)c1C (stereo not given)", "GI50": "> 100 µM (inactive)"}
{"Compound": "CC1(C)OC[C@H](COCOP2(=O)Oc3ccc4ccccc4c3-c3c(ccc4ccccc34)O2)O1", "GI50": "17.8 µM (inactive)"}
{"Compound": "COc1ccc2nc(-c3ccccn3)cc(O)c2c1", "GI50": "> 100 µM (inactive)"}
{"Compound": "O=S1(=O)OCCCOS(=O)(=O)C1(Br)Br", "GI50": "> 100 µM (inactive)"}
{"Compound": "CN(C)CCCNc1ccnc2c([N+](=O)[O-])cccc12", "GI50": "> 10 µM (inactive)"}
{"Compound": "COc1cc(/C=C2\\CCC(C)/C(=C\\c3cc(OC)c(OC)c(OC)c3)C2=O)cc(OC)c1OC (stereo not given)", "GI50": "3.38 µM (inactive)"}
{"Compound": "COc1nc(C)nc2c1ncn2Cc1ccccc1", "GI50": "> 100 µM (inactive)"}
{"Compound": "CC(=O)N1c2ccccc2[C@H]2CCc3c([nH]c4ccccc34)[C@H]21", "GI50": "26.9 µM (inactive)"}
{"Compound": "O=C(O)C1=C(C(=O)Nc2ccc(NC(=O)C3=C(C(=O)O)C4C=CC3C4)cc2)C2C=CC1C2", "GI50": "> 100 µM (inactive)"}
{"Compound": "N#C[C@H](OC1OC(COC2OC(CO)C(O)C(O)C2O)C(O)C(O)C1O)c1ccccc1 (stereo not given in full)", "GI50": "> 250 µM (inactive)"}
{"Compound": "COc1cc(C2c3c(ccc4ccccc34)C(=O)C3CCC(=O)N32)cc(OC)c1OC (stereo not given)", "GI50": "> 50 µM (inactive)"}
{"Compound": "c1ccc(C2(c3ccccc3)S/C(=C3/SC(c4ccccc4)(c4ccccc4)c4ccccc43)c3ccccc32)cc1", "GI50": "> 100 µM (inactive)"}
{"Compound": "O=C1C2Cc3ccccc3CN2C(=O)N1CCN1CCOCC1 (stereo not given)", "GI50": "> 100 µM (inactive)"}
{"Compound": "CCc1cc(O)c(Cl)c(C)c1Cl", "GI50": "20.6 µM (inactive)"}
{"Compound": "COc1cc(/C=C/c2ccc(OC)c(OC)c2OC)cc(OC)c1OC", "GI50": "15.8 µM (inactive)"}

====

Here the recorded GI50 is given for each entry.
# System: PC-3
# Assay Protocol: NCI tumour cell line growth inhibition, 48 h
Activity calls are given as the source filed them. No stated cut-off is given here; in the data, active = GI50 up to about 1.1 µM and inactive = higher.

{"Compound": "CC(O)C(CO)NC(=O)C1CSSCC(NC(=O)C(N)Cc2ccccc2)C(=O)NC(Cc2ccccc2)C(=O)NC(Cc2c[nH]c3ccccc23)C(=O)NC(CCCCN)C(=O)NC(C(C)O)C(=O)N1 (stereo unspecified)", "GI50": "> 100 µM (inactive)"}
{"Compound": "CCCCCCCCCCCCCCCCCCOc1ccc(/C=C/C2=[N+](CCCl)CCO2)cc1", "GI50": "> 100 µM (inactive)"}
{"Compound": "COc1cc(/C=C2\\N=C(c3ccccc3)N(c3nc4ccc(Sc5ccccc5)cc4[nH]3)C2=O)cc(OC)c1OC", "GI50": "26.9 µM (inactive)"}
{"Compound": "C=CC1ON(Cc2ccccc2)CCc2cc(OC)c(OC)cc21 (stereo unspecified)", "GI50": "48.9 µM (inactive)"}
{"Compound": "CC1(C)CCC[C@]2(C)[C@@H]1CC[C@@]13O[C@@H]1C1=C(CO)C(=O)O[C@]14O[C@@H]4[C@@H]23", "GI50": "9.1 µM (inactive)"}
{"Compound": "CCCCN(CCCC)CC(=O)c1ccc2cc(Cl)c3ccccc3c2c1", "GI50": "32 µM (inactive)"}
{"Compound": "COC(=O)c1ccc(Nc2nc3[nH]cnc3c(=O)[nH]2)cc1", "GI50": "> 100 µM (inactive)"}
{"Compound": "C[C@@H]1CC[C@H]2[C@H]1[C@H]1[C@@H](CC[C@]2(C)N=C=S)C1(C)C", "GI50": "26.7 µM (inactive)"}
{"Compound": "NC(=S)N/N=C/c1ncccc1N", "GI50": "1.57 µM (inactive)"}
{"Compound": "CC(=O)OCC1C(=O)OCC1C(=O)N1Cc2cc3ccccc3nc2C1 (stereo unspecified)", "GI50": "7.45 µM (inactive)"}
{"Compound": "O=c1c2c(no[n+]2[O-])c2ccccc2n1-c1ccccc1", "GI50": "14.3 µM (inactive)"}
{"Compound": "COC1(CC[C@@H](C)COC2OC(CO)C(O)C(O)C2O)O[C@H]2C[C@H]3[C@@H]4CC=C5C[C@@H](OC6OC(CO)C(O)C(OC7OC(CO)C(O)C(O)C7O)C6OC6OC(C)C(O)C(O)C6O)CC[C@]5(C)[C@H]4CC[C@]3(C)[C@H]2[C@@H]1C (stereo partly specified)", "GI50": "6.82 µM (inactive)"}
{"Compound": "Cc1cn([C@@H]2C[C@](C)(CO)N(C)O2)c(=O)[nH]c1=O", "GI50": "> 100 µM (inactive)"}
{"Compound": "Cc1ncc([N+](=O)[O-])n1CCNC(=O)CCCn1cnc([N+](=O)[O-])n1", "GI50": "> 100 µM (inactive)"}
{"Compound": "O=C1C=CC(=O)c2c1ccc1c3ccccc3n(Cc3cccc([N+](=O)[O-])c3)c21", "GI50": "30.1 µM (inactive)"}
{"Compound": "C=C(C)[C@@H]1CC[C@]2(CO)CC[C@]3(C)[C@H](CC[C@@H]4[C@@]5(C)CC[C@H](O)C(C)(C)[C@@H]5CC[C@]43C)[C@@H]12", "GI50": "30.2 µM (inactive)"}

====

# Test system: KM-20L2
# Assay Protocol: NCI tumour cell line growth inhibition, 48 h
Active and inactive are the calls of the source. Rule as the data show it: active = GI50 up to about 1.1 µM and inactive = higher.
Labels: 1 = active, 0 = inactive

{"Compound": "Cc1nc2c(n1Cc1ccc(Cl)cc1)C(=O)c1ccccc1C2=O", "Target": "KM-20L2", "Classification": 0}
{"Compound": "CCN(CC)C(=O)CC12CCCCC1=Nc1ccccc12 (configuration not stated)", "Target": "KM-20L2", "Classification": 0}
{"Compound": "CN(C)CCC(/C=C/c1ccccc1)=N\\Nc1ccc(Cl)cc1", "Target": "KM-20L2", "Classification": 0}
{"Compound": "CCOC(OC1=C(C#N)CCCC1)C(C)[Se]c1ccccc1 (configuration not stated)", "Target": "KM-20L2", "Classification": 0}
{"Compound": "O=C(c1ccccc1)c1oc2ccc(Br)cc2c1-c1cnn(-c2ccccc2)c1", "Target": "KM-20L2", "Classification": 0}
{"Compound": "O=c1cccccc1NCCCCCCCCNc1cccccc1=O", "Target": "KM-20L2", "Classification": 0}
{"Compound": "COc1ccc(-c2cc(=O)c3c(O)c(O)c(OC)cc3o2)cc1O", "Target": "KM-20L2", "Classification": 0}
{"Compound": "[N-]=[N+]=NC1C(Br)C(=O)NC(=O)N1[C@H]1C[C@H](O)[C@@H](CO)O1 (some centres not stated)", "Target": "KM-20L2", "Classification": 0}
{"Compound": "C=C1C(C)C2C(Cc3ccccc3)NC(=O)C23C(OC(C)=O)/C=C/C(C)(O)CC(C)C/C=C/C3C1O (configuration not stated)", "Target": "KM-20L2", "Classification": 1}
{"Compound": "CC(C)n1c2c([n+](C)c1/C=C/c1ccccc1)C(=O)c1ccccc1C2=O", "Target": "KM-20L2", "Classification": 1}
{"Compound": "N=S(=O)(c1ccccc1)c1ccccc1[N+](=O)[O-] (configuration not stated)", "Target": "KM-20L2", "Classification": 0}
{"Compound": "S=c1cc(S)c2c(=S)sc3nc4ccccn4c(=S)c3c2s1", "Target": "KM-20L2", "Classification": 0}
{"Compound": "CC(=O)OCC1C(=O)OCC1C(=O)N1Cc2cc3ccccc3nc2C1 (configuration not stated)", "Target": "KM-20L2", "Classification": 0}
{"Compound": "CC1=C2C(=CC(C)(C)[C@@H]2O)C(=O)[C@](C)(O)C12CC2", "Target": "KM-20L2", "Classification": 1}
{"Compound": "O=C(OC1CCC2OOC1O2)c1ccc([N+](=O)[O-])cc1 (configuration not stated)", "Target": "KM-20L2", "Classification": 0}
{"Compound": "CC(C)=CCC/C(C)=C/C=C/C(C)=C/C1C[C@@]2(C(O)O1)[C@H](CCCO)/C(=C(/C)C=O)CC[C@]2(C)O (some centres not stated)", "Target": "KM-20L2", "Classification": 0}
{"Compound": "CCOc1ccc2[nH]c3c(C)c4cc[n+](C)cc4c(C)c3c2c1", "Target": "KM-20L2", "Classification": 0}
{"Compound": "O=C1c2ccccc2-c2cccc3ccc(Cc4ccccc4)c1c23", "Target": "KM-20L2", "Classification": 0}
{"Compound": "COC(=O)C(=O)C(C#N)c1c(Cl)cccc1Cl (configuration not stated)", "Target": "KM-20L2", "Classification": 0}
{"Compound": "CNC(=O)ON(C(C)=O)C(=O)NC [CARACEMIDE]", "Target": "KM-20L2", "Classification": 0}
{"Compound": "CSc1nc(SC)c2c(C(N)=S)n[nH]c2n1", "Target": "KM-20L2", "Classification": 0}
{"Compound": "S=C(N/N=C/c1ccco1)NC12CC3CC(CC(C3)C1)C2", "Target": "KM-20L2", "Classification": 0}
